# Assay Remarks: Pharmacokinetic parameters (Tmax, AUClast, Cmax) of DD217 in phase II trial patients
# Assay type: in vivo, human (patients undergoing knee replacement surgery)
# Stated Conditions: human, plasma, oral, 40 mg/day; ABCB1 rs1045642 T>C, T/T (n 4); read-out: Tmax (SD)
Property Name: Tmax (h)
The answer is to be given in h; state only the numeric part.

What measured Tmax goes with "CC(=N)N(C)c1ccc(C(=O)Nc2ccc(C)cc2C(=O)Nc2ccc(Cl)cn2)cc1.Cl" ? 9.5

----------
# Assay Remarks: Pharmacokinetic parameters (Tmax, AUClast, Cmax) of DD217 in phase II trial patients
# Assay type: in vivo, human (patients undergoing knee replacement surgery)
# Stated Conditions: human, plasma, oral, 40 mg; CYP3A *1/*1, EM (n = 12); mean ± SD; read-out: AUClast
Property Name: AUC(0-t) (ng·h/mL)
The answer is to be given in ng·h/mL; state only the numeric part.

What measured AUC(0-t) goes with CC(=N)N(C)c1ccc(C(=O)Nc2ccc(C)cc2C(=O)Nc2ccc(Cl)cn2)cc1.Cl [DD217] ? 40

----------
# Assay Remarks: Pharmacokinetic parameters (Tmax, AUClast, Cmax) of DD217 in phase II trial patients
# Assay type: in vivo, human (patients undergoing knee replacement surgery)
# Stated Conditions: human, plasma, oral, 60 mg/day; ABCB1 rs4148738 C/T (n 9); read-out: AUClast (SD)
Property Name: AUC(0-t)

What measured AUC(0-t) goes with "CC(=N)N(C)c1ccc(C(=O)Nc2ccc(C)cc2C(=O)Nc2ccc(Cl)cn2)cc1.Cl" ? 51.9 ng·h/mL

----------
# Assay Remarks: Pharmacokinetic parameters (Tmax, AUClast, Cmax) of DD217 in phase II trial patients
# Assay type: in vivo, human (patients undergoing knee replacement surgery)
# Stated Conditions: human, plasma, oral, 40 mg/day; ABCB1 rs4148738 C>T, C/C (n 2); read-out: Cmax (SD)
Property Name: Cmax

What measured Cmax goes with "CC(=N)N(C)c1ccc(C(=O)Nc2ccc(C)cc2C(=O)Nc2ccc(Cl)cn2)cc1.Cl" ? 8.35 ng/mL

----------
# Assay Remarks: Pharmacokinetic parameters (Tmax, AUClast, Cmax) of DD217 in phase II trial patients
# Assay type: in vivo, human (patients undergoing knee replacement surgery)
# Stated Conditions: human, plasma, oral, 40 mg; CYP3A *1/*1, EM (n = 12); mean ± SD; read-out: Cmax
Property Name: Cmax (ng/mL)
The answer is to be given in ng/mL; state only the numeric part.

What measured Cmax goes with "CC(=N)N(C)c1ccc(C(=O)Nc2ccc(C)cc2C(=O)Nc2ccc(Cl)cn2)cc1.Cl" ? 5.02

----------
# Assay Remarks: Pharmacokinetic parameters (Tmax, AUClast, Cmax) of DD217 in phase II trial patients
# Assay type: in vivo, human (patients undergoing knee replacement surgery)
# Stated Conditions: human, plasma, oral, 40 mg; CYP2C9 *1/*1, NM (n = 8); mean ± SD; read-out: AUClast
Property Name: AUC(0-t) (ng·h/mL)
The answer is to be given in ng·h/mL; state only the numeric part.

What measured AUC(0-t) goes with "CC(=N)N(C)c1ccc(C(=O)Nc2ccc(C)cc2C(=O)Nc2ccc(Cl)cn2)cc1.Cl" ? 54.5

----------
# Assay Remarks: Pharmacokinetic parameters (Tmax, AUClast, Cmax) of DD217 in phase II trial patients
# Format: in vivo, human (patients undergoing knee replacement surgery)
# Stated Conditions: human, plasma, oral, 40 mg/day; ABCB1 rs1045642 T>C, C/C (n 5); read-out: Tmax (SD)
Property Name: Tmax
Could you write the number and then its unit?

What measured Tmax goes with "CC(=N)N(C)c1ccc(C(=O)Nc2ccc(C)cc2C(=O)Nc2ccc(Cl)cn2)cc1.Cl" ? 17.2 h
